Tested on: pACLY (S455)
protocolNotes: ELISA of pACLY (S455) / ACLY enzymatic activity in PANC-1 cells
Type: cell-based, human
cond: 5 μM
Description: ELISA assay was used to evaluate the effect of GS compounds on protein activity levels in PANC-1 cancer cells. PANC-1 cells were serum-starved overnight and then treated with rIGF1 (100 ng/mL) for 24 hours, with or without GS27 (5 μM). The levels of the following proteins were evaluated by ELISA assay: a) p70 S6 (T389) (cat no. […] The effects of different GS compounds on ACLY enzymatic activity were evaluated by ELISA assay in PANC-1 pancreatic cancer cells. […]
measurementType: ACLY enzymatic activity (ELISA)

Below, each entry is followed by its recorded ACLY enzymatic activity (ELISA) result.
# smilesData, measurementType, observedMeasurement
data = [
    ("C/C=C(/C=O)[C@@H](CC=O)CC(=O)OCCc1ccccc1", "ACLY enzymatic activity (ELISA)", "small effect"),
    ("C/C=C(/C=O)[C@@H](CC=O)CC(=O)OCCCCCCCCCCCCCCCC", "ACLY enzymatic activity (ELISA)", "did not show any effect"),
    ("C/C=C(/C=O)[C@@H](CC=O)CC(=O)OCCCSC", "ACLY enzymatic activity (ELISA)", "did not show any effect"),
    ("C/C=C(/C=O)[C@@H](CC=O)CC(=O)OCCOc1ccccc1", "ACLY enzymatic activity (ELISA)", "small effect"),
]

Turning to the following compound.
Enquiry: Which ACLY enzymatic activity (ELISA) value belongs to C/C=C(/C=O)[C@@H](CC=O)CC(=O)OCc1cc2ccccc2[nH]1 ?
Return: small effect

----------
protocolNotes: ABTS radical cation scavenging assay
Type: biochemical
cond: NS = not statistically significant
Quick rule for you: ABTS Radical Cation Scavenging Assay IC50 under 40 μg extract/mL gets true, anything else gets false.

Enquiry: For this compound, is ABTS Radical Cation Scavenging Assay IC50 lower than 40 μg extract/mL? C/C=C(/C=O)[C@@H](CC=O)CC(=O)OCCc1ccc(O)c(O)c1 [GS17, reference compound]
Return: true

Enquiry: Proceed to C/C=C1/[C@H](O[C@@H]2O[C@H](CO)[C@@H](O)[C@H](O)[C@H]2O)OC=C(C(=O)OC)[C@H]1CC(=O)OCCc1ccc(O)c(O)c1 [GS1, oleuropein]
Return: true

Enquiry: Proceed to C/C=C(/C=O)[C@@H](CC=O)CC(=O)OCCc1cccc(O)c1 [GS20]
Return: false

Enquiry: Proceed to C/C=C(/C=O)[C@@H](CC=O)CC(=O)OCCc1ccc(O)cc1 [GS19, reference compound]
Return: true

Enquiry: Proceed to C/C=C1/[C@H](OC2OC(CO)C(O)C(O)C2O)OC=C(C(=O)O)[C@H]1CC(=O)OCCc1ccc(O)c(O)c1 (stereo in doubt) [GS6]
Return: true

Enquiry: Proceed to C/C=C1/[C@H](OC2OC(CO)C(O)C(O)C2O)OC=C(C(=O)O)[C@H]1CC(=O)OCCc1cccc(O)c1 (stereo in doubt) [GS14]
Return: false

----------
System: MKN-45 gastric cancer cells
protocolNotes: XTT cell growth assay, MKN-45
Type: cell-based, human
cond: Homo sapiens, MKN-45, 24 h, NS = not statistically significant, read-out: Effectiveness to suppress MKN-45 cell growth (cell growth inhibition)
Outcome: 1.0 for inhibition at 50 µM of at least 40%; 0.0 for anything lower.

Enquiry: State whether the measured inhibition at 50 µM reaches 40%, counting equality as reaching it, for C/C=C(/C=O)[C@@H](CC=O)CC(=O)OCCCSC
Return: 1.0

Enquiry: Proceed to C/C=C(/C=O)[C@@H](CC=O)CC(=O)OCCc1cccc(O)c1
Return: 1.0

Enquiry: Proceed to C/C=C1/[C@H](OC2OC(CO)C(O)C(O)C2O)OC=C(C(=O)O)[C@H]1CC(=O)OCCOc1ccccc1 (stereo in doubt)
Return: 0.0

Enquiry: Proceed to C/C=C(/C=O)[C@@H](CC=O)CC(=O)OCCc1ccccc1
Return: 1.0

Enquiry: Proceed to C/C=C(/C=O)[C@@H](CC=O)CC(=O)OCCc1ccc(O)cc1 [GS19, reference compound]
Return: 1.0

Enquiry: Proceed to C/C=C(/C=O)[C@@H](CC=O)CC(=O)OCCOc1ccccc1
Return: 0.0

Enquiry: Proceed to C/C=C(/C=O)[C@@H](CC=O)CC(=O)OCCC1CCCCC1
Return: 0.0
